tested on: phospho-MEK in A549 cells; assay: Cell-based pMEK (pMEK:tMEK, CRAF bypass) in A549 cells; details: 2 h, pMEK to total MEK normalized to DMSO control
Classification field: enter condition met for A549-CRAF BP 100 nM, 2 h values not below 60, condition not met for values below it.

Answered cases to consult:
molecule="CNS(=O)(=O)Nc1cccc(Cc2c(CNCC(F)(F)F)c3ccc(OC(=O)N(C)C)cc3oc2=O)c1F [Compound 75]" study_target="phospho-MEK in A549 cells" label="condition met"
molecule="CNS(=O)(=O)Nc1cccc(Cc2c(CN(C)C3CCC3)c3ccc(OC(=O)N(C)C)cc3oc2=O)c1F [Compound 86]" study_target="phospho-MEK in A549 cells" label="condition not met"
molecule="CNS(=O)(=O)Nc1cccc(Cc2c(CNCC#N)c3ccc(OC(=O)N(C)C)cc3oc2=O)c1F [Compound 33]" study_target="phospho-MEK in A549 cells" label="condition not met"

[in] Entry CCS(=O)(=O)Nc1nccc(Cc2c(C)c3ccc(OC(=O)N(C)C)cc3oc2=O)c1F [Compound 119] : is its A549-CRAF BP 100 nM, 2 h no less than 60?
[out] condition met

[in] Entry CCS(=O)(=O)Nc1nccc(Cc2c(CN(C)C)c3ccc(OC(=O)N(C)C)cc3oc2=O)c1F [Compound 148] : is its A549-CRAF BP 100 nM, 2 h no less than 60?
[out] condition not met

[in] Entry CCN(CC)Cc1c(Cc2cccc(NS(=O)(=O)NC)c2F)c(=O)oc2cc(OC(=O)N(C)C)ccc12 [Compound 73] : is its A549-CRAF BP 100 nM, 2 h no less than 60?
[out] condition not met

[in] Entry CNS(=O)(=O)Nc1cccc(Cc2c(CN(C)CC3CC3)c3ccc(OC(=O)N(C)C)cc3oc2=O)c1F [Compound 84] : is its A549-CRAF BP 100 nM, 2 h no less than 60?
[out] condition met

[in] Entry CNS(=O)(=O)Nc1cccc(Cc2c(CN(C)CC3CCC3)c3ccc(OC(=O)N(C)C)cc3oc2=O)c1F [Compound 88] : is its A549-CRAF BP 100 nM, 2 h no less than 60?
[out] condition not met

###

biological target: CYP2C9 (Homo sapiens); experiment: CYP450 panel inhibition in human liver microsomes, 2C9 (diclofenac); details: human liver microsomes, 10 μM, substrate diclofenac
Sequence (P11712 whole entry): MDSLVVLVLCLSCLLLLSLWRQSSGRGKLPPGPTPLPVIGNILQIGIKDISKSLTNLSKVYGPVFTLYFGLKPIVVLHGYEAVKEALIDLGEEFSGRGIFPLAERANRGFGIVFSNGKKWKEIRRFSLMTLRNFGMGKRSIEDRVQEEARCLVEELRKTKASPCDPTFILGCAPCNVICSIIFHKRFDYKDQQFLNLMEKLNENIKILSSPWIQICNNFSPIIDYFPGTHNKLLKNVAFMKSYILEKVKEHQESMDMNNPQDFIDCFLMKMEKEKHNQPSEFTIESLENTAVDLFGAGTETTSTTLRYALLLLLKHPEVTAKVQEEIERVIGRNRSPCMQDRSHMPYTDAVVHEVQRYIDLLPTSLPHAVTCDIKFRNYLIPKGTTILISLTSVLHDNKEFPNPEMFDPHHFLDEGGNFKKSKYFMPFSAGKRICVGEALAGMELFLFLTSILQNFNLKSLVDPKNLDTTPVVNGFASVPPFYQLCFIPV
Classification field: enter 1 for CYP-2C9 (Diclofenac) mean percentage CYP inhibition values not below 30%, 0 for values below it.

compound="CNS(=O)(=O)Nc1cccc(Cc2c(CN(C)C)c3ccc(OC(=O)N(C)C)cc3oc2=O)c1F [Compound 9]" study_target="CYP2C9 (Homo sapiens)" label=0
compound="CCS(=O)(=O)Nc1cccc(Cc2c(CN(C)C)c3ccc(OC(=O)N(C)C)cc3oc2=O)c1F [Compound 120]" study_target="CYP2C9 (Homo sapiens)" label=0
compound="CCCS(=O)(=O)Nc1cccc(Cc2c(CN3CCNCC3)c3cc(Cl)c(OC(=O)N(C)C)cc3oc2=O)c1F [Compound 167]" study_target="CYP2C9 (Homo sapiens)" label=1

[in] Entry CNS(=O)(=O)Nc1cccc(Cc2c(CN(C)C)c3cc(F)c(OC(=O)N(C)C)cc3oc2=O)c1F [Compound 25] : is its CYP-2C9 (Diclofenac) mean percentage CYP inhibition no less than 30%?
[out] 0

[in] Entry CNS(=O)(=O)Nc1nccc(Cc2c(CN(C)C)c3ccc(OC(=O)N(C)C)cc3oc2=O)c1F [Compound 124] : is its CYP-2C9 (Diclofenac) mean percentage CYP inhibition no less than 30%?
[out] 1

[in] Entry CNS(=O)(=O)Nc1cccc(Cc2c(CN3CCNCC3)c3cc(F)c(OC(=O)N(C)C)cc3oc2=O)c1F [Compound 134] : is its CYP-2C9 (Diclofenac) mean percentage CYP inhibition no less than 30%?
[out] 0

###

biological target: CYP2C8 (Homo sapiens, UniProt P10632); assay: CYP450 panel inhibition in human liver microsomes, 2C8 (amodiaquine); details: 10 μM, substrate amodiaquine
Sequence (P10632 whole entry): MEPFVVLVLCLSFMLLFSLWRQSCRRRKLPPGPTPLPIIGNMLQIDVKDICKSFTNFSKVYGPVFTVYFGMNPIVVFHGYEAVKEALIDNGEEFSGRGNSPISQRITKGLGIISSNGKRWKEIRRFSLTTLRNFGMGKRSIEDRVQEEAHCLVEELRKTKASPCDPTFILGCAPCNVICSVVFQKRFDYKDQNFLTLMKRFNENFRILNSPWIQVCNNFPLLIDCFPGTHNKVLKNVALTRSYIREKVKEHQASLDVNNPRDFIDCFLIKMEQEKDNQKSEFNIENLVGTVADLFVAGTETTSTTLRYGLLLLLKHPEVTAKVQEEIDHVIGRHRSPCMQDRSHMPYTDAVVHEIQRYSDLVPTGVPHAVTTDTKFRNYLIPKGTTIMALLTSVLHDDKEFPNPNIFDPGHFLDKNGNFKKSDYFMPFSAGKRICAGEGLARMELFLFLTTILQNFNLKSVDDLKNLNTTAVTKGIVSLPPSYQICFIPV
observable: CYP-2C8 (Amodiaquine) mean percentage CYP inhibition (%)
Answer with a number only, understood to be in %.

[in] Answer briefly: CYP-2C8 (Amodiaquine) mean percentage CYP inhibition recorded on CYP2C8 (Homo sapiens, UniProt P10632) for CNS(=O)(=O)Nc1cccc(Cc2c(CN(C)C)c3ccc(OC(=O)N(C)C)cc3oc2=O)c1F
[out] 15.5

[in] Answer briefly: CYP-2C8 (Amodiaquine) mean percentage CYP inhibition recorded on CYP2C8 (Homo sapiens, UniProt P10632) for CNS(=O)(=O)Nc1cccc(Cc2c(CN3CCNCC3)c3cc(F)c(OC(=O)N(C)C)cc3oc2=O)c1F
[out] 78.8

[in] Answer briefly: CYP-2C8 (Amodiaquine) mean percentage CYP inhibition recorded on CYP2C8 (Homo sapiens, UniProt P10632) for CCS(=O)(=O)Nc1cccc(Cc2c(CN(C)C)c3ccc(OC(=O)N(C)C)cc3oc2=O)c1F
[out] 21.9

[in] Answer briefly: CYP-2C8 (Amodiaquine) mean percentage CYP inhibition recorded on CYP2C8 (Homo sapiens, UniProt P10632) for CNS(=O)(=O)Nc1cccc(Cc2c(CN(C)C)c3cc(F)c(OC(=O)N(C)C)cc3oc2=O)c1F
[out] 77.2

[in] Answer briefly: CYP-2C8 (Amodiaquine) mean percentage CYP inhibition recorded on CYP2C8 (Homo sapiens, UniProt P10632) for CNS(=O)(=O)Nc1nccc(Cc2c(CN(C)C)c3ccc(OC(=O)N(C)C)cc3oc2=O)c1F
[out] 59.0

[in] Answer briefly: CYP-2C8 (Amodiaquine) mean percentage CYP inhibition recorded on CYP2C8 (Homo sapiens, UniProt P10632) for CCCS(=O)(=O)Nc1cccc(Cc2c(CN3CCNCC3)c3cc(Cl)c(OC(=O)N(C)C)cc3oc2=O)c1F
[out] 61.8

###

assay: in vitro; details: human, Caco-2, Mean Papp A-B (10^-6 cm/s)
observable: Papp A→B at 2 h, 10 μM (×10⁻⁶ cm/s)
Answer with a number only, understood to be in ×10⁻⁶ cm/s.

Examples from the recorded data:
compound="CC(=O)CC(c1ccccc1)c1c(O)c2ccccc2oc1=O (stereo not shown)" observed_measurement=36.6
compound=CNC(=C[N+](=O)[O-])NCCSCc1ccc(CN(C)C)o1 observed_measurement=0.347

[in] Return reported Papp A→B at 2 h, 10 μM. Input compound: CNS(=O)(=O)Nc1nccc(Cc2c(C)c3ccc(Oc4ncccn4)cc3oc2=O)c1F [Reference-2, reference compound]
[out] 18.1

[in] Return reported Papp A→B at 2 h, 10 μM. Input compound: Cn1cnc2c(F)c(Nc3ccc(Br)cc3Cl)c(C(=O)NOCCO)cc21 [Reference-1, Selumetinib]
[out] 8.83

###

test system: phospho-ERK in A549 (KRAS G12S) cells; experiment: Cell-based pERK (pERK:tERK) in A549 cells; details: 10 nM, 2 h; phospho- to total protein ratio normalized to DMSO control (Table 9)
observable: A549-pERK (10 nM, 2 h)

Examples from the recorded data:
compound="CNS(=O)(=O)Nc1cccc(Cc2c(CN(C)c3ccccc3Cl)c3ccc(OC(=O)N(C)C)cc3oc2=O)c1F [Compound 99]" observed_measurement=98.9
compound="CNS(=O)(=O)Nc1cccc(Cc2c(CNC(=O)C(C)(C)O)c3ccc(OC(=O)N(C)C)cc3oc2=O)c1F [Compound 212]" observed_measurement=100
compound="CNC1CN(Cc2c(Cc3cccc(NS(=O)(=O)NC)c3F)c(=O)oc3cc(OC(=O)N(C)C)ccc23)C1 [Compound 164]" observed_measurement=102

[in] Return reported A549-pERK (10 nM, 2 h). Input compound: CNS(=O)(=O)Nc1cccc(Cc2c(CN3CCC3)c3cc(Cl)c(OC(=O)N(C)C)cc3oc2=O)c1F [Compound 19]
[out] 59.9

[in] Return reported A549-pERK (10 nM, 2 h). Input compound: CNS(=O)(=O)Nc1cccc(Cc2c(CN(C)CC3CCC3)c3ccc(OC(=O)N(C)C)cc3oc2=O)c1F [Compound 88]
[out] 142

[in] Return reported A549-pERK (10 nM, 2 h). Input compound: CNS(=O)(=O)Nc1cccc(Cc2c(CNc3ccn(C)n3)c3ccc(OC(=O)N(C)C)cc3oc2=O)c1F [Compound 89]
[out] 83.7

[in] Return reported A549-pERK (10 nM, 2 h). Input compound: CNS(=O)(=O)Nc1cccc(Cc2c(CN3CC(N(C)C)C3)c3ccc(OC(=O)N(C)C)cc3oc2=O)c1F [Compound 154]
[out] 64

[in] Return reported A549-pERK (10 nM, 2 h). Input compound: CNS(=O)(=O)Nc1cccc(Cc2c(CN3CCN(C(=O)c4ccccc4)CC3)c3ccc(OC(=O)N(C)C)cc3oc2=O)c1F [Compound 65]
[out] 100

[in] Return reported A549-pERK (10 nM, 2 h). Input compound: CNS(=O)(=O)Nc1cccc(Cc2c(CN(C)C)c3ccc(Oc4ncccn4)cc3oc2=O)c1F [Compound 129]
[out] 92.2

[in] Return reported A549-pERK (10 nM, 2 h). Input compound: C#CCNCc1c(Cc2cccc(NS(=O)(=O)NC)c2F)c(=O)oc2cc(OC(=O)N(C)C)ccc12 [Compound 14]
[out] 64

[in] Return reported A549-pERK (10 nM, 2 h). Input compound: CCS(=O)(=O)Nc1cccc(Cc2c(C)c3ccc(OC(=O)N(C)C)cc3oc2=O)c1F [Compound 107]
[out] 18.0

[in] Return reported A549-pERK (10 nM, 2 h). Input compound: CNS(=O)(=O)Nc1cccc(Cc2c(CN3CCNCC3)c3cc(F)c(OC(=O)N(C)C)cc3oc2=O)c1F [Compound 134]
[out] 33.1

[in] Return reported A549-pERK (10 nM, 2 h). Input compound: CNS(=O)(=O)Nc1cccc(Cc2c(CNCC(=O)Nc3ccccc3)c3ccc(OC(=O)N(C)C)cc3oc2=O)c1F [Compound 223]
[out] 119

[in] Return reported A549-pERK (10 nM, 2 h). Input compound: Cc1c(Cc2cccc(NS(=O)(=O)C(C)C)c2F)c(=O)oc2cc(OC(=O)N(C)C)ccc12 [Compound 115]
[out] 13.5

[in] Return reported A549-pERK (10 nM, 2 h). Input compound: CNS(=O)(=O)Nc1cccc(Cc2c(CNc3ccn[nH]3)c3ccc(OC(=O)N(C)C)cc3oc2=O)c1F [Compound 31]
[out] 66.7

[in] Return reported A549-pERK (10 nM, 2 h). Input compound: CNS(=O)(=O)Nc1cccc(Cc2c(CNC(C)c3ccccc3)c3ccc(OC(=O)N(C)C)cc3oc2=O)c1F (centres unmarked) [Compound 63]
[out] 88

[in] Return reported A549-pERK (10 nM, 2 h). Input compound: CNS(=O)(=O)Nc1cccc(Cc2c(CN3CCNCC3)c3cc(Cl)c(OC(=O)N(C)C)cc3oc2=O)c1F [Compound 21]
[out] 20.4

[in] Return reported A549-pERK (10 nM, 2 h). Input compound: CNS(=O)(=O)Nc1cccc(Cc2c(CNc3ccccc3)c3ccc(OC(=O)N(C)C)cc3oc2=O)c1F [Compound 30]
[out] 54.3
